Each entry below carries its recorded pIC50.
# system_under_test: Angiotensin-converting enzyme (Rattus norvegicus) (UniProt P47820)
# Sequence (P47820 whole entry, looked up): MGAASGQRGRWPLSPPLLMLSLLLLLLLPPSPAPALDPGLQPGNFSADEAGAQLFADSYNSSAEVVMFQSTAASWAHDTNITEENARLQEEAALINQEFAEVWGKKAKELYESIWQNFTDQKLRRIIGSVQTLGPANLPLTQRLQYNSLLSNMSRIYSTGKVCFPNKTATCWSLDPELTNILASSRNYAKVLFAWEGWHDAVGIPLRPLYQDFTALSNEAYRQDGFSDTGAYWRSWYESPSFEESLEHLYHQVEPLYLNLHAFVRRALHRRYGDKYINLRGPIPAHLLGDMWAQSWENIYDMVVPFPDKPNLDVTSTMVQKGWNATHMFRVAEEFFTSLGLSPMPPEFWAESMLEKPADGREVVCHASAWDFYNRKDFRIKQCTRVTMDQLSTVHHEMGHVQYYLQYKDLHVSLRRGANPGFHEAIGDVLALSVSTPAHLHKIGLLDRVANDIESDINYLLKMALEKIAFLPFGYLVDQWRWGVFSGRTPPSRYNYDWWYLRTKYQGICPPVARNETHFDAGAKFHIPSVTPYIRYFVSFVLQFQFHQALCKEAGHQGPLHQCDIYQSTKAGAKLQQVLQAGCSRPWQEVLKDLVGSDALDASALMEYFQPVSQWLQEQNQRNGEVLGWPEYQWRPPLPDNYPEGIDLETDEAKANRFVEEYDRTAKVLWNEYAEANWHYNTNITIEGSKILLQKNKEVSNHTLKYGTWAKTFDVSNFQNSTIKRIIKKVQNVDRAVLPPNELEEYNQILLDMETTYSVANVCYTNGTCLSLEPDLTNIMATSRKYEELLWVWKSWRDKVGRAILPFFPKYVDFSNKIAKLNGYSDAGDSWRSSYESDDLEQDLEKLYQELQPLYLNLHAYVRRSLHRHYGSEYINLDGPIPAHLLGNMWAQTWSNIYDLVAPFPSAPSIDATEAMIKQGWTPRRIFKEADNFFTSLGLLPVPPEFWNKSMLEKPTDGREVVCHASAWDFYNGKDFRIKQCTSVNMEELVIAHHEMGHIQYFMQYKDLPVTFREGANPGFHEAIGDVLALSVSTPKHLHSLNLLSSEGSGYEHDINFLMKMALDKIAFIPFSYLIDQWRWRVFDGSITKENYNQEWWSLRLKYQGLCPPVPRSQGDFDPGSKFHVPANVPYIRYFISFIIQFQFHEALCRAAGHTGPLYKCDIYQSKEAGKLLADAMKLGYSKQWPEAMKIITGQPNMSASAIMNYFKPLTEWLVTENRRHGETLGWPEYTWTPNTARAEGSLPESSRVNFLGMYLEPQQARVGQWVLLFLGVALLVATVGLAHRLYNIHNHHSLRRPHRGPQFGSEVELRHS
Schema: pIC50 number; meaning minus log10 of the concentration expressed in molar units.

>>> print(df.to_string())
                                        smi  metric  result_number
0  CN1CCC[C@H](NC(=O)[C@@H](S)Cc2ccccc2)C(=O)N1CC(=O)O   pIC50           7.80

Task: # pIC50 lookup, item O=C(N[C@H]1CCC(=O)N2CCC[C@@H](C(=O)O)N2C1=O)[C@@H](S)Cc1ccccc1
Result: 8.15

Task: Which measured pIC50 value corresponds to CCCN1C(=O)CC[C@H](NC(=O)[C@@H](S)Cc2ccccc2)C(=O)N1CC(=O)O ?
Result: 8.00

Task: Requested read-out: pIC50. Entry: O=C(O)CN1NCCC[C@H](NC(=O)[C@@H](S)Cc2ccccc2)C1=O
Result: 7.22
